- Measurement conditions: in isopropanol, 288.5 K

>  <Given smiles>
C(=C\c1ccccc1)/CN1CCN(C(c2ccccc2)c2ccccc2)CC1

>  <solubility (mole fraction)>
0.00064

$$$$

---

- Measurement conditions: in n-butyl acetate, 313.2 K
Measurement name: solubility (mole fraction)

>  <Given smiles>
C(=C\c1ccccc1)/CN1CCN(C(c2ccccc2)c2ccccc2)CC1

>  <Measurement name>
solubility (mole fraction)

>  <Meas value>
0.0425

$$$$

---

- Measurement conditions: in n-butanol, 288.5 K

>  <Given smiles>
C(=C\c1ccccc1)/CN1CCN(C(c2ccccc2)c2ccccc2)CC1

>  <solubility (mole fraction)>
0.00273

$$$$
